microsomal CLint at 2 μM reference
Assay: Mouse liver microsomes stability with NADPH
Settings: male, mouse, microsomes
readout_kind: microsomal CLint at 2 μM

> print(dat)
                                   compound  observed.result
1  [2H]C([2H])(c1c[nH]c2cccc(F)c12)[C@H]1CCCN1C([2H])([2H])[2H] [Compound I-37]   25.8 µL/min/mg
2  [2H]C([2H])([2H])N1CCC[C@@H]1Cc1c[nH]c2cccc(OC(=O)CCCCCCC/C=C\C/C=C\CCCCC)c12 [Compound I-48]     80 µL/min/mg
3  [2H]C([2H])([2H])N1CCC[C@@H]1Cc1c[nH]c2cccc(F)c12 [Compound I-40]     22 µL/min/mg
4  [2H]C([2H])(c1c[nH]c2cccc(OC(=O)CCCCCCC/C=C\C/C=C\CCCCC)c12)[C@H]1CCCN1C([2H])([2H])[2H] [Compound I-49]   66.5 µL/min/mg
